Measured values drawn from PubChem BioAssay (NCI) for this set.

- System: NCI/ADR-RES ovarian
- Experiment Description: NCI tumour cell line growth inhibition, 48 h
Quantity Name: TGI

Note to self: TGI recorded for O=NN1CCCS1(=O)=O was > 100 µM

Note to self: TGI recorded for CCCCCCNC(=O)n1cc(F)c(=O)[nH]c1=O was 92.5 µM

Note to self: TGI recorded for COc1cc2c3c(c1OC)C1(C=CC(=O)C=C1)CC3NCC2 (stereo unspecified) was > 100 µM

Note to self: TGI recorded for O=C1C(Cl)=C(c2ccc([N+](=O)[O-])cc2)C(=O)c2c(O)cccc21 was 17.1 µM

Note to self: TGI recorded for CCCCCCNC(=O)Oc1ccc(/C(=C(/C)Cc2ccc(OC)cc2)c2ccc(OCCN(C)C)cc2)cc1 was 10.7 µM

Further cases:
Note to self: TGI recorded for O=C(NCCCCCCO)c1cccc2cc3ccccc3nc12 was > 100 µM

###

We begin with a simple list: items and their reported TGI.
- Tested on: HCT-15 colon
- Experiment Description: NCI tumour cell line growth inhibition, 48 h
Answer as a quantity: numeral, then unit.

The value of TGI recorded for COC(=O)c1ccc2c(c1)C(=O)c1c-2n(CCCN)c(=O)c2cc(OC)c(OC)cc12 when tested on HCT-15 colon reads 30.5 µM

The value of TGI recorded for COc1cc(C2c3cc4c(cc3[C@@H](OCCN(C)C)C3COC(=O)[C@H]23)OCO4)cc(OC)c1O (stereo not given in full) when tested on HCT-15 colon reads 3.12 µM

The value of TGI recorded for N=c1ccc2nc3c(cc(N)c4ccccc43)oc-2c1 when tested on HCT-15 colon reads 1.13 µM

The value of TGI recorded for CC1(C)C(=O)C=CC2(C)C1CC(O)C1(C)C2CCC2(C)C(c3ccoc3)OC(=O)C3OC321 (stereo not given) when tested on HCT-15 colon reads 23.6 µM

# next compound below
The value of TGI recorded for COC(=O)c1ccc(CN2C(=O)C(Cl)=C(Nc3ccc(OC)c(Cl)c3)C2=O)cc1 when tested on HCT-15 colon reads 42.4 µM

###

- Tested on: HCC-2998 colon
- Experiment Description: NCI tumour cell line growth inhibition, 48 h
We begin with a simple list: items and their reported TGI.

Note to self: TGI recorded for [N-]=[N+]=CC(=O)COC(=O)c1ccccc1 was > 100 µM

Note to self: TGI recorded for CCOC(=O)Nc1nc2cc(OCC)ccc2s1 was > 100 µM

Note to self: TGI recorded for Clc1ccc(-c2c(C3=NCCN3)nnn2-c2ccccc2)cc1 was > 100 µM

###

We begin with a simple list: items and their reported TGI.
- System: SN12C renal
- Experiment Description: NCI tumour cell line growth inhibition, 48 h

Solved entries (count: 6):
Note to self: TGI recorded for O=C1CCN2CCC(=O)c3c2c(cc2ccccc32)N1 was > 100 µM

Note to self: TGI recorded for NNC(=O)Cn1ccnn1 was > 100 µM

Note to self: TGI recorded for O=C(O)Cc1ccccc1CCc1ccccc1Cl was > 100 µM

Note to self: TGI recorded for O=C(N/N=C/c1ccc(Cl)cc1)c1[nH]c2ccc(Cl)cc2c1-c1ccccc1 was > 70.4 µM

Note to self: TGI recorded for O=c1c(O)cccn1C1OC(CO)C(O)C1O (configuration not stated) was > 100 µM

Note to self: TGI recorded for COc1cc2cc(C(=O)N3CC(CCl)c4c3cc(NC(=O)C(C)Nc3c([N+](=O)[O-])cc(C(=O)NCCN(C)C)cc3[N+](=O)[O-])c3ccccc43)[nH]c2c(OC)c1OC (configuration not stated) was 0.643 µM

Further cases:
Note to self: TGI recorded for C/C(=C(/c1ccc(O)cc1)c1ccc(Cl)cc1)c1ccccc1 was 0.977 µM
